Where these numbers come from: patent US20230066268A1

tested on: HCMV Strain AD169 in MRC-5 cells; experiment: CMV cell assay; type: cell-based; conditions: Human betaherpesvirus 5, AD169, MRC5; footnote b: assay described in Example 25; read-out: CMV Cell^b (EC50)
pEC50: −log10 of the molar value.

MOL_SMILES: Cn1nc(C(=O)NCc2ccc(Cl)cc2)c2ccc(N3CCn4nncc4C3)c(Br)c21
TARGET_OR_TEST_SYSTEM: HCMV Strain AD169 in MRC-5 cells
RESULT_OPERATOR: =
pEC50: 6.03
--
MOL_SMILES: Cn1nncc1COc1ccc2c(C(=O)NCc3ccc(Cl)cc3)nn(C)c2c1Cl
TARGET_OR_TEST_SYSTEM: HCMV Strain AD169 in MRC-5 cells
RESULT_OPERATOR: =
pEC50: 6.34
--
MOL_SMILES: Cn1nc(C(=O)NCc2ccc(Cl)cc2)c2c(O)c(CN3CCOCC3)ccc21
TARGET_OR_TEST_SYSTEM: HCMV Strain AD169 in MRC-5 cells
RESULT_OPERATOR: <
pEC50: 5.00
--
MOL_SMILES: Cn1nc(C(=O)NCc2ccc([N+](=O)[O-])cc2)c2cc(CN3CCOCC3)ccc21
TARGET_OR_TEST_SYSTEM: HCMV Strain AD169 in MRC-5 cells
RESULT_OPERATOR: =
pEC50: 4.92

* * *

target: varicella zoster virus DNA polymerase (Varicella-zoster virus, UniProt P09252); construct: made in house; host or cells: SF21 insect cells (baculovirus vector); assay: VZV polymerase assay (AlphaLISA); type: biochemical; conditions: polymerase assay of Example 27; VZV polymerase 0.4 nM; read-out: VZV^a (IC50)
Sequence (P09252 whole entry): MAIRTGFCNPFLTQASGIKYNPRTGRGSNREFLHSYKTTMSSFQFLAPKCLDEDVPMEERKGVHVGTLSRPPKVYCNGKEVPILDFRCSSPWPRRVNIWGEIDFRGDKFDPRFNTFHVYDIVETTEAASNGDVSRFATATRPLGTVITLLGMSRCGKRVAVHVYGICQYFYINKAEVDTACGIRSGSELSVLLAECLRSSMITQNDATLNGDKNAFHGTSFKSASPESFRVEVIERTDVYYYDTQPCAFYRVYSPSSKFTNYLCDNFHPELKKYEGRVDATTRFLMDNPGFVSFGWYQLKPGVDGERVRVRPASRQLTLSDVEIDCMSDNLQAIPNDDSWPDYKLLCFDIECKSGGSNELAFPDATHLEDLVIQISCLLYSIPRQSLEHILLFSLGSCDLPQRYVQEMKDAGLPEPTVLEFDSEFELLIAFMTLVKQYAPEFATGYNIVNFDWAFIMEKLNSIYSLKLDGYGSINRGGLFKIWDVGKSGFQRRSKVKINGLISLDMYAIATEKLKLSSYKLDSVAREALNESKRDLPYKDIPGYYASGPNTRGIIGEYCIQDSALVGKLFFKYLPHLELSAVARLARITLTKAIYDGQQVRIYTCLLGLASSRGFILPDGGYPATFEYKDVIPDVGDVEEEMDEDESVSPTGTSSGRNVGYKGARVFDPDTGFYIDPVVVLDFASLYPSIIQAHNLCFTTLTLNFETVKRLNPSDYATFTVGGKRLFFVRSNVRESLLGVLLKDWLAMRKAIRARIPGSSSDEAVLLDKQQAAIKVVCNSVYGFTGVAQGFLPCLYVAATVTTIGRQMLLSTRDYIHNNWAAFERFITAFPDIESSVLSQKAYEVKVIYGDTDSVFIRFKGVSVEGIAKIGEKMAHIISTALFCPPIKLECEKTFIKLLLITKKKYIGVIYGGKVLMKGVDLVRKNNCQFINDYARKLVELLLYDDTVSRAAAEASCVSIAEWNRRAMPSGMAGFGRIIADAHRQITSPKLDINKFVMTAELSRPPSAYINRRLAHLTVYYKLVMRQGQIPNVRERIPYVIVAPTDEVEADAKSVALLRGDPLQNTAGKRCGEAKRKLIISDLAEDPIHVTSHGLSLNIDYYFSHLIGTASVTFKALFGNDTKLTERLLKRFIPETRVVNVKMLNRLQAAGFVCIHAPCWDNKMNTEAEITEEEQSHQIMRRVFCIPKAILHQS
pIC50: −log10 of the molar value.
Short version: pIC50 at least 7 is YES, less is NO.

COMPOUND: Cn1nc(C(=O)NCc2ccc(Cl)cc2)c2c3c(ccc21)C(N1CCOCC1)CC3 (centres unmarked) [Compound 17]
ASSIGNED_LABEL: YES
--
COMPOUND: Cn1nc(C(=O)NCc2ccc(F)cc2)c2cc(CN3CCOCC3)ccc21
ASSIGNED_LABEL: NO
--
COMPOUND: Cn1nc(C(=O)NCc2ccc(Cl)cc2)c2cc(CN3CCOCC3)ncc21
ASSIGNED_LABEL: NO
--
COMPOUND: Cn1nc(C(=O)NCc2ccc(Cl)cc2)c2ccc(N3CCn4nncc4C3)c(Br)c21
ASSIGNED_LABEL: YES
--
COMPOUND: Cn1nc(C(=O)NCc2ccc(Cl)cc2)c2c(F)c(CN3CCOCC3)ccc21
ASSIGNED_LABEL: NO
--
COMPOUND: Cn1nc(C(=O)NCc2ccc([N+](=O)[O-])cc2)c2cc(CN3CCOCC3)ccc21
ASSIGNED_LABEL: NO

* * *

In this section, each of the molecules is paired with its reported IC50.
molecular target: Human cytomegalovirus DNA polymerase (Human cytomegalovirus, UniProt P08546); construct: made in house; host or cells: SF21 insect cells (baculovirus vector); assay: CMV polymerase assay (AlphaLISA); assay type: biochemical; conditions: polymerase assay of Example 27; HCMV polymerase 0.2 nM; read-out: CMV^a (IC50)
Sequence (P08546 whole entry): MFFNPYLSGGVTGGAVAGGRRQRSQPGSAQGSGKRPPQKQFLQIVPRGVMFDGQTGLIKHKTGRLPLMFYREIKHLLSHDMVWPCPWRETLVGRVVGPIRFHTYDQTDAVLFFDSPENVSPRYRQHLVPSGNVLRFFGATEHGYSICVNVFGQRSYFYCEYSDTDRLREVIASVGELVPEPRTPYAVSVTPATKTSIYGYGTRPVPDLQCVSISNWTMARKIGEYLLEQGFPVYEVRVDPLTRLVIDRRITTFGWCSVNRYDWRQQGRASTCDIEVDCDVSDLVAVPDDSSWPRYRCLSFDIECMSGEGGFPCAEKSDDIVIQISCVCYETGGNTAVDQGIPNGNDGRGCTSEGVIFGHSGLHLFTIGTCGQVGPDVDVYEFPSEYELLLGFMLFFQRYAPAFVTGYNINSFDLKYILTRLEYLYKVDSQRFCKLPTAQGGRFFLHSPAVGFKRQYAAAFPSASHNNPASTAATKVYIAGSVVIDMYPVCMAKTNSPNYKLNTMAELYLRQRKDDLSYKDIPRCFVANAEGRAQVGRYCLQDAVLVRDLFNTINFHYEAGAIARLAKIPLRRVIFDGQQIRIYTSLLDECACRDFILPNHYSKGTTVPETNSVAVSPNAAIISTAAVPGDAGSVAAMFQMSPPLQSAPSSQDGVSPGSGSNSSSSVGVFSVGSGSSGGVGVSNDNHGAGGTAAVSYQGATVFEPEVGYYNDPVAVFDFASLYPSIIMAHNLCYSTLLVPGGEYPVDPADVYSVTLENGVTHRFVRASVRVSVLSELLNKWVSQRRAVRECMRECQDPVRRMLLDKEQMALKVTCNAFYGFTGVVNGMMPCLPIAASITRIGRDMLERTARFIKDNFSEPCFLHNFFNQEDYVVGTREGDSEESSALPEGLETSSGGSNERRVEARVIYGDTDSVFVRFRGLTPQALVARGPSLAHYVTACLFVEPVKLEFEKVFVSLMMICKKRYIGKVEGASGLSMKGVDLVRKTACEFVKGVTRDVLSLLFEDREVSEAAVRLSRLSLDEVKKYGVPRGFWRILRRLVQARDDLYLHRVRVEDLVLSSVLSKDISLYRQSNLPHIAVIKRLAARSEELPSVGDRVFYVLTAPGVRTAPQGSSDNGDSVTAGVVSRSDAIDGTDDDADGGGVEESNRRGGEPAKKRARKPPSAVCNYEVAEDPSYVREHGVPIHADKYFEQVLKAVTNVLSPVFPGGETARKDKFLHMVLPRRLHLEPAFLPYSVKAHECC

MOL_SMILES: Cn1nc(C(=O)NCc2ccc(Cl)cc2)c2cc(C[C@H]3COC(=O)N3)ccc21
IC50: 78 nM
//
MOL_SMILES: Cn1nc(C(=O)NCc2ccc(F)cc2)c2cc(CN3CCOCC3)ccc21
IC50: 3300 nM
//
MOL_SMILES: Cc1c(NCc2cnnn2C)ccc2c(C(=O)NCc3ccc(Cl)cc3)n[nH]c12
IC50: 17 nM
//
MOL_SMILES: Cc1c(CN2CCOCC2)cc(C)c2c1c(C(=O)NCc1ccc(Cl)cc1)nn2C
IC50: 280 nM
